B1: 2M8U (parent)
chain: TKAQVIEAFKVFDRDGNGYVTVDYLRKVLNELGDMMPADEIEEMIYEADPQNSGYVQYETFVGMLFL

variants of: B1; experiment: folding stability dG (cDNA display proteolysis); higher = more stable; conditions: PBS, room temperature
measure name: folding stability dG (kcal/mol)
Report the figure in kcal/mol without appending any unit label.

The examples below pair each entry with its known result.
[[record]]
construct_sequence = "TKAQVIEAFKVFDRYGNGYVTVDYLRKVLNELGDMMPADEIEEMIYEADPQNSGYVQYETFVGMLFL [D15Y]"
data_value = 2.96

[[record]]
construct_sequence = "TKAQVIEAFKVFDRDGNGYVTVDYLRKVLNFLGDMMPADEIEEMIYEADPQNSGYVQYETFVGMLFL [E31F]"
data_value = 3.53

[[record]]
construct_sequence = "TKAQVIEAFKVFDRDGNGYVTVDYLRKVLNELGDMMPADEIEEMIYEADPQNSGDVQYETFVGMLFL [Y55D]"
data_value = 2.22

[[record]]
construct_sequence = "TKAQVIEAFKVFDRDGNGYVTVDYLRKVLNELGDMMPADEIEEMEYEADPQNSGYVQYETFVGMLFL [I45E]"
data_value = 2.15

[[record]]
construct_sequence = "TKAQVIEAFKVFDRDGNGFVTVDYLRKVLNELGDMMPADEIEEMIYEADPQNSGYVQYETFVGMLFL [Y19F]"
data_value = 3.66


Item: TKAQVIEAFKVFDRDGNGYVTVDYLRKVLNELGDMMPADEIEEMIYEADPQMSGYVQYETFVGMLFL [N52M] | folding stability dG: 3.42

Item: TKAQVIFAFKVFDRDGNGYVTVDYLRKVLNELGDMMPADEIEEMIYEADPQNSGYVQYETFVGMLFL [E7F] | folding stability dG: 2.86

Item: TKAQVMEAFKVFDRDGNGYVTVDYLRKVLNELGDMMPADEIEEMIYEADPQNSGYVQYETFVGMLFL [I6M] | folding stability dG: 3.42

Item: TKAQVIEAFKVFDRNGNGYVTVDYLRKVLNELGDMMPADEIEEMIYEADPQNSGYVQYETFVGMLFL [D15N] | folding stability dG: 2.97

Item: TKAQVIEAFKVADRDGNGYVTVDYLRKVLNELGDMMPADEIEEMIYEADPQNSGYVQYETFVGMLFL [F12A] | folding stability dG: 3.36

Item: TKAQVIEAFKVFDRDGNGYVTVDYLRKVLNELGDMMPADEIEYMIYEADPQNSGYVQYETFVGMLFL [E43Y] | folding stability dG: 3.69

Item: TKAQVIEAFKVHDRDGNGYVTVDYLRKVLNELGDMMPADEIEEMIYEADPQNSGYVQYETFVGMLFL [F12H] | folding stability dG: 3.24
